Protein target, amino acids: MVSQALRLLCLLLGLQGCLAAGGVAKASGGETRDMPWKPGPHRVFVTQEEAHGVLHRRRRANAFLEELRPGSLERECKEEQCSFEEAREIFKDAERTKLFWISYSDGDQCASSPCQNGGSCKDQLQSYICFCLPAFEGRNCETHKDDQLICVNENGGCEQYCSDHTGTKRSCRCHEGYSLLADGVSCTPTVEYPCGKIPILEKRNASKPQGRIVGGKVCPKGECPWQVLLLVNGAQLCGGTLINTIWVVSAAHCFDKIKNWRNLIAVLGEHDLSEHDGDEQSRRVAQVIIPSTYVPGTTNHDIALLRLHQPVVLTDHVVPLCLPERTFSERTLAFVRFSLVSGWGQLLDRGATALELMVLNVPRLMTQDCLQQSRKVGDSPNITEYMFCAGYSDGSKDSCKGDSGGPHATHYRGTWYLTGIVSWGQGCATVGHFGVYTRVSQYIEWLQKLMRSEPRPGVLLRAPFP
pKi: −log10 of the molar value.
EXPERIMENTAL READOUT: pKi

See these solved cases before continuing.
N=C(N)c1ccc2nc(-c3cc(C(CC(=O)O)C(=O)O)cc(-c4ccc(CO)s4)c3O)[nH]c2c1 (centres undefined) :: 6.89
CSc1ccccc1-c1cc(C(CC(=O)O)C(=O)O)cc(-c2nc3ccc(C(=N)N)cc3[nH]2)c1O (centres undefined) :: 7.19

(1) N=C(N)c1ccc2nc(-c3cc(C(CC(=O)O)C(=O)O)cc(-c4cccc(C5CCOC(=O)O5)c4)c3O)[nH]c2c1 (centres undefined)
(2) CC(=O)N(c1cccc(C)c1)c1cc(C(CC(=O)O)C(=O)O)cc(-c2nc3ccc(C(=N)N)cc3[nH]2)c1O (centres undefined)
# min-compare on pKi between 1 and 2 The response must carry the label of the picked entry.
1
(1: 6.55, 2: 7.27)
